Source listed as the supplement of paper PMC7877785.

I'd appreciate it if you could supply self-splicing fitness (ln) values for the items below.
Experiment: self-splicing fitness, log relative to wild type (ln ratio); higher = more splicing; Tetrahymena group I intron in knt gene, E. coli kanamycin selection, DiMSum; sequences stand for … in CUCUCU…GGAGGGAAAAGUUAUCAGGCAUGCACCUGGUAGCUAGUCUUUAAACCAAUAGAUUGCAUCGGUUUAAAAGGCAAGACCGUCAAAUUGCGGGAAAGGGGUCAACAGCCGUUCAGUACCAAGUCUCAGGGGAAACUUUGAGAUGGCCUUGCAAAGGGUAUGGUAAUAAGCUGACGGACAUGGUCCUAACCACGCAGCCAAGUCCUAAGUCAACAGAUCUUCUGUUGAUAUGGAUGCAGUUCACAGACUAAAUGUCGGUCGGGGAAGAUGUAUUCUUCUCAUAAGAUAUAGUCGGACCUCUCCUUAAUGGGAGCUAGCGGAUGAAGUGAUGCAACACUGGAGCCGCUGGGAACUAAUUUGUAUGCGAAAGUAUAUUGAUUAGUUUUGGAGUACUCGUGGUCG;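 also: selection with 25 µg/mL kanamycin versus none on LB agar overnight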
Settings: 37 °C
Answers are plain numbers.

Reference set (2 entries):
Construct Sequence | Recorded Result
CGGUAGCAAUAUUACGGUAG | -0.0774
CGCUAGCAAUAUUACGAUUA | -2.73

Please supply self-splicing fitness (ln) for each of the following items, keeping them in order.
1. CCACAGCAAUAUUACGUUUA
2. GCUCAGCAAUAUUACGAGGG
3. GUCGAGCAAUAUUACGCAGG
4. GCAGAGCAAUAUUACGAGCU
5. GCCCAGCAAUAUUACGUGUG
6. CGUAAGCAAUAUUACGUAAU
7. ACAGAGCAAUAUUACGCACG
8. CACCAGCAAUAUUACGGGCA

**A:**
1: -2.47; 2: -2.57; 3: -3.05; 4: -1.17; 5: -1.69; 6: -2.64; 7: -3.43; 8: -0.343

Please supply self-splicing fitness (ln) for each of the following items, keeping them in order.
1. GGUUAGCAAUAUUACGAGGU
2. GUUUAGCAAUAUUACGUAUG
3. GCGUAGCAAUAUUACGUCUU
4. CAGCAGCAAUAUUACGGGUU
5. GAUAAGCAAUAUUACGGACA
6. GUGCAGCAAUAUUACGCAGA
7. ACUGAGCAAUAUUACGGUCU
8. GGGUAGCAAUAUUACGCGCA

**A:**
1. -2.43
2. -0.712
3. -1.93
4. -1.6
5. -0.559
6. -1.53
7. -1.57
8. -0.0359

Please supply self-splicing fitness (ln) for each of the following items, keeping them in order.
1. CUCCAGCAAUAUUACGAUAG
2. ACGGAGCAAUAUUACGUAUG

**A:**
[-0.825, -2.81]

---

Test: self-splicing fitness, log relative to wild type (ln ratio); higher = more splicing; Tetrahymena group I intron in knt gene, E. coli kanamycin selection, DiMSum; sequences stand for … in CUCUCU…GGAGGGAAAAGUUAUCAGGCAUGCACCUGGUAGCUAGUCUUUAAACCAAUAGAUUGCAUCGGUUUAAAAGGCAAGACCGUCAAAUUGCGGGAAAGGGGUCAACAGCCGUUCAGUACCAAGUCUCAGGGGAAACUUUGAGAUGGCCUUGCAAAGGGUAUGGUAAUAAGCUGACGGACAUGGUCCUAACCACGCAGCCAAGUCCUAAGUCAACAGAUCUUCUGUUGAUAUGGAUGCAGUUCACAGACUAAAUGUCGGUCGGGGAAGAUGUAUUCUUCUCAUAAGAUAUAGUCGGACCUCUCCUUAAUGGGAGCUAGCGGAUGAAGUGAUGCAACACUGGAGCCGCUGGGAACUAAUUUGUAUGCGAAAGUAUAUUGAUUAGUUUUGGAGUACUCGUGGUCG
Settings: 37 °C
Parameter Measured: self-splicing fitness (ln)
Numbers only.

Construct Sequence | self-splicing fitness (ln)
GCACAGCAAUAUUACGCUUU | -0.0512
UGUGAGCAAUAUUACGGCUA | -0.508
AACCAGCAAUAUUACGUGAA | -0.516

Please supply self-splicing fitness (ln) for each of the following items, keeping them in order.
1. AGCCAGCAAUAUUACGGAGC
2. GCGCAGCAAUAUUACGACUU
3. UACAAGCAAUAUUACGUCUC
4. GGUAAGCAAUAUUACGACCA
5. AACGAGCAAUAUUACGGCCA
6. AUUUAGCAAUAUUACGCACC

**A:**
1. -1.83
2. 0.099
3. -2.24
4. -0.643
5. -1.37
6. -0.21

---

Assay: self-splicing fitness, log relative to wild type (ln ratio); higher = more splicing; Tetrahymena group I intron in knt gene, E. coli kanamycin selection, DiMSum; sequences stand for … in CUCUCU…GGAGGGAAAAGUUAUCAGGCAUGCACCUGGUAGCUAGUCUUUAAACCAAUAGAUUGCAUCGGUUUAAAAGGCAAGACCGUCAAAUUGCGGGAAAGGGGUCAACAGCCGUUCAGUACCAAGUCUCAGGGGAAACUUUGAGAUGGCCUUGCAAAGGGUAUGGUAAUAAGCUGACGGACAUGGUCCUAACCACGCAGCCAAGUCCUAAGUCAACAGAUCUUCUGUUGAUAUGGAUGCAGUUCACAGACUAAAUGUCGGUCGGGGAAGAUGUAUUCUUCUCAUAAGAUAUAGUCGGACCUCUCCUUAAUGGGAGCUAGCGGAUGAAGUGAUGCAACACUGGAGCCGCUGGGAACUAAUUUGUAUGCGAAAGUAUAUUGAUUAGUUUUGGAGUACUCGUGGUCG
Conditions: 30 °C
Decide by self-splicing fitness (ln): equal to or exceeding -3 means condition met, less means condition not met.

Construct Sequence | Qualitative Label
AAUAAGCAAUAUUACGCUUU | condition not met
CUGAAGCAAUAUUACGUUUC | condition met
AGGCAGCAAUAUUACGACGU | condition met
UCAAAGCAAUAUUACGGUAU | condition not met
UAACAGCAAUAUUACGCAAG | condition met

**Q:** Identify whether the reported self-splicing fitness (ln) of the following sequence is -3 or greater: UUGGAGCAAUAUUACGUCCA
**A:** condition met

**Q:** Identify whether the reported self-splicing fitness (ln) of the following sequence is -3 or greater: UUCAAGCAAUAUUACGAAAC
**A:** condition met

**Q:** Identify whether the reported self-splicing fitness (ln) of the following sequence is -3 or greater: GCUCAGCAAUAUUACGAUGG
**A:** condition met

**Q:** Identify whether the reported self-splicing fitness (ln) of the following sequence is -3 or greater: AGGCAGCAAUAUUACGACCG
**A:** condition met

**Q:** Identify whether the reported self-splicing fitness (ln) of the following sequence is -3 or greater: UGGGAGCAAUAUUACGCGAG
**A:** condition met

**Q:** Identify whether the reported self-splicing fitness (ln) of the following sequence is -3 or greater: GUGUAGCAAUAUUACGGUCG
**A:** condition met

**Q:** Identify whether the reported self-splicing fitness (ln) of the following sequence is -3 or greater: CGCCAGCAAUAUUACGGCUU
**A:** condition met

---

Experiment: self-splicing fitness, log relative to wild type (ln ratio); higher = more splicing; Tetrahymena group I intron in knt gene, E. coli kanamycin selection, DiMSum; sequences stand for … in CUCUCU…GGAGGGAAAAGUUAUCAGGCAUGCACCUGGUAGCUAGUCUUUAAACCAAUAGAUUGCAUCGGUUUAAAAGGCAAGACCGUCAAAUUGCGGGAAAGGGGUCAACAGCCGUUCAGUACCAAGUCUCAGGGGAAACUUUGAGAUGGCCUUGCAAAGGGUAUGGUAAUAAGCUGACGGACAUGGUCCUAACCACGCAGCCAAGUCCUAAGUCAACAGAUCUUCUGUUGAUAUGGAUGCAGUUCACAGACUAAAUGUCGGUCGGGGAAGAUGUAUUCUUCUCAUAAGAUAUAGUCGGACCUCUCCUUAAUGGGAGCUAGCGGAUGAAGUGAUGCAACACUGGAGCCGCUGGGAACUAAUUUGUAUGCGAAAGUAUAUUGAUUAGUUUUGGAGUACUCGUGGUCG
Conditions: 30 °C
Decide by self-splicing fitness (ln): equal to or exceeding -2 means satisfied, less means not satisfied.

Solved entries:
Construct Sequence | Qualitative Label
CUUCAGCAAUAUUACGUGCC | not satisfied
ACAUAGCAAUAUUACGAGAU | not satisfied
AUUUAGCAAUAUUACGCAUU | satisfied
ACCUAGCAAUAUUACGCUCU | satisfied

**Q:** Identify whether the reported self-splicing fitness (ln) of the following sequence is -2 or greater: GGAGAGCAAUAUUACGACUC
**A:** satisfied

**Q:** Identify whether the reported self-splicing fitness (ln) of the following sequence is -2 or greater: UCAGAGCAAUAUUACGCCGG
**A:** not satisfied
